# system_under_test: T1, human melanocortin 4 receptor (human, UniProt P32245 1-332)
# T1 construct: whole, on cells; cAMP assay on whole BHK cells; also called MC4R; human MC4 receptor
# assay_text: competition with 125-NDP-α-MSH, BHK human MC4R membranes
Positions of bridges follow the written chain, without caps; N, C: chain ends. Non-standard residues stand in square brackets, D forms with d. Hyp = O=C(O)[C@@H]1C[C@@H](O)CN1
readout_type: pKi
Scale: pKi equals -log10([C]), with [C] in mol/L.

Sample records with pKi:
• cyclo(CPH[dF]HWCKKKKW) (disulfide 1-7, also called c[c[Cys-Pro-His-D-Phe-His-Trp-Cys]-Lys-Lys-Lys-Lys-Trp]) [Chem. 75] = 9.96
• cyclo(C[Hyp]H[dF]HWCAKKKW) (disulfide 1-7; SMILES C[C@@H]1NC(=O)[C@@H]2CSSC[C@H](NC(=O)[C@H](Cc3c[nH]c4ccccc34)NC(=O)[C@H](CCCCN)NC(=O)[C@H](CCCCN)NC(=O)[C@H](CCCCN)NC1=O)C(=O)N1C[C@H](O)C[C@H]1C(=O)N[C@@H](Cc1c[nH]cn1)C(=O)N[C@H](Cc1ccccc1)C(=O)N[C@@H](Cc1c[nH]cn1)C(=O)N[C@@H](Cc1c[nH]c3ccccc13)C(=O)N2, also called c[c[Cys-Hyp-His-D-Phe-His-Trp-Cys]-Ala-Lys-Lys-Lys-Trp]) [Chem. 70] = 10.15
• cyclo(CGH[dF]RWCGH[dF]RW) (disulfide 1-7; SMILES N=C(N)NCCC[C@@H]1NC(=O)[C@@H](Cc2ccccc2)NC(=O)[C@H](Cc2c[nH]cn2)NC(=O)CNC(=O)[C@@H]2CSSC[C@H](NC(=O)[C@H](Cc3c[nH]c4ccccc34)NC1=O)C(=O)NCC(=O)N[C@@H](Cc1c[nH]cn1)C(=O)N[C@H](Cc1ccccc1)C(=O)N[C@@H](CCCNC(=N)N)C(=O)N[C@@H](Cc1c[nH]c3ccccc13)C(=O)N2, also called c[c[Cys-Gly-His-D-Phe-Arg-Trp-Cys]-Gly-His-D-Phe-Arg-Trp]) [Chem. 2] = 10.15
• cyclo(CAH[dF]K(Ac)WCAK[dK]KW) (disulfide 1-7; SMILES CC(=O)NCCCC[C@@H]1NC(=O)[C@@H](Cc2ccccc2)NC(=O)[C@H](Cc2c[nH]cn2)NC(=O)[C@H](C)NC(=O)[C@@H]2CSSC[C@H](NC(=O)[C@H](Cc3c[nH]c4ccccc34)NC1=O)C(=O)N[C@@H](C)C(=O)N[C@@H](CCCCN)C(=O)N[C@H](CCCCN)C(=O)N[C@@H](CCCCN)C(=O)N[C@@H](Cc1c[nH]c3ccccc13)C(=O)N2, also called c[c[Cys-Ala-His-D-Phe-AcLys-Trp-Cys]-Ala-Lys-D-Lys-Lys-Trp]) [Chem. 58] = 10.05

Req: Recall and state the measured pKi for cyclo(CAH[dF]RWRCAH[dF]RWR) (disulfide 1-8; SMILES C[C@@H]1NC(=O)[C@@H]2CSSC[C@H](NC(=O)[C@H](CCCNC(=N)N)NC(=O)[C@H](Cc3c[nH]c4ccccc34)NC(=O)[C@H](CCCNC(=N)N)NC(=O)[C@@H](Cc3ccccc3)NC(=O)[C@H](Cc3c[nH]cn3)NC1=O)C(=O)N[C@@H](C)C(=O)N[C@@H](Cc1c[nH]cn1)C(=O)N[C@H](Cc1ccccc1)C(=O)N[C@@H](CCCNC(=N)N)C(=O)N[C@@H](Cc1c[nH]c3ccccc13)C(=O)N[C@@H](CCCNC(=N)N)C(=O)N2, also called c[c[Cys-Ala-His-D-Phe-Arg-Trp-Arg-Cys]-Ala-His-D-Phe-Arg-Trp-Arg]) [Chem. 69] .
Resp: 8.33
